Numbers sourced from PubChem BioAssay (Tox21).

experiment: qHTS assay to identify small molecule antagonists of the estrogen related receptor signaling pathway with the pleiotropic PPARgamma coactivator (PGC) from Tox21 10K library - cell viability counter screen (AID 1224840); conditions: PGC/ERR reporter cells viability, CellTiter-Fluor, 17.5 h; series mostly up to 92.4 µM; also: nearly all actives have a fitted effect of over 40% in size
Results filed as inconclusive are left out. Activity calls are given as the source filed them. Calls follow the shape of the dose curve; as a rule, active = well fitted cell-killing curve with a large enough effect in the repeat runs (not every such curve was filed as active); inconclusive = weak or mixed curves, or effect the other way; inactive = no such curve, though single readings can be large or run the other way.
Respond only with the outcome that fits, drawn from T = active, F = inactive

• CN(C)CCN(Cc1ccccc1)c1ccccn1 = F
• O=P(O)(OCc1ccccc1)OCc1ccccc1 = F
• c1ccc(C(O[C@H]2CCCN(CCc3ccc4c(c3)OCO4)C2)c2ccccc2)cc1 = F
• COCCCN1CCC(NC(=O)c2cc(Cl)c(N)c3c2OCC3)CC1 = F
• C1CCCNCCC1 = F
• C[N+]1(C)CCC(OC(=O)C(O)(c2ccccc2)C2CCCC2)C1 (stereo not drawn) = F
• CC(C)=CCC/C(C)=C/CC/C(C)=C/CO = F
• CC(=O)c1ccc2c(c1)N(CCCN1CCC(CCO)CC1)c1ccccc1S2 = F
• CC[N+]1(CC)CCC(=C(c2ccccc2)c2ccccc2)C1C (stereo not drawn) = F
• CNCCCN1c2ccccc2CCc2ccccc21 = F

Query: Outcome? COc1cc(Cl)c(OC)cc1N
Result: F

Query: Returns: the outcome recorded for CCCCC(=O)OCC(=O)[C@H]1[C@H](C)C[C@H]2[C@@H]3C[C@H](F)C4=CC(=O)C=C[C@]4(C)[C@@]3(F)[C@@H](O)C[C@@]21C in this assay.
Result: F

Query: // outcome(item) with item = CCOC(=O)C(F)(F)F
Result: F

---

assay: qHTS assay to identify small molecule antagonists of the estrogen related receptor (ERR) signaling pathway from Tox21 library - cell viability counter screen (AID 1224834); conditions: ERR reporter cells viability, CellTiter-Fluor, 17.5 h; series mostly up to 92.4 µM; also: nearly all actives have a fitted effect of over 30% in size
Records with an inconclusive call do not appear. Activity calls are given as the source filed them. Calls come from the whole dose curve; as a rule, active = well fitted cell-killing curve with a large enough effect in the repeat runs; inconclusive = weak or mixed curves; inactive = flat fitted curve, though single readings scatter.
Field 'call' accepts active, inactive

Solved entries (count: 8):
• CC[N+](C)(CC)CCOC(=O)C(O)(c1ccccc1)C1CCCCC1 (configuration not stated) = inactive
• C=C(C)C(=O)OCC = inactive
• O[C@@H](COc1cccc2ncccc12)CN1CCN(C2c3ccccc3[C@@H]3[C@H](c4ccccc42)C3(F)F)CC1 (some centres not stated) = active
• Cc1ccc(N=Nc2c(O)c(C(=O)O)cc3ccccc23)c(S(=O)(=O)O)c1 = active
• Cc1cc(C(=O)O)ccc1[N+](=O)[O-] = inactive
• OCc1cc(C(O)CNCCCCCCOCCCCc2ccccc2)ccc1O (configuration not stated) = active
• CCNc1cc(O)ccc1C = inactive
• CN(C)CCOC(c1ccccc1)c1ccc(Br)cc1 (configuration not stated) = inactive

Query: Could you please tell me the result logged for O=C(c1ccc(F)cc1)C1CCN(CCn2c(=S)[nH]c3ccccc3c2=O)CC1 in this assay?
Result: active

Query: What classification did C[N+]1(CC2COC(c3ccccc3)(C3CCCCC3)O2)CCCCC1 (configuration not stated) end up with in this test?
Result: inactive

Query: Called result for CC(C)C[C@H]1C(=O)N2CCC[C@H]2[C@]2(O)O[C@](NC(=O)[C@@H]3C=C4c5cccc6[nH]c(Br)c(c56)C[C@H]4N(C)C3)(C(C)C)C(=O)N12
Result: active

Query: Given O=C(O)C1(C(=O)Nc2ccc(Cl)cc2Cl)CC1 , state the outcome it received in this test.
Result: inactive

Query: Please indicate how the test categorized Nc1ccc(S(=O)(=O)Nc2ccccc2)cc1 .
Result: inactive

Query: What did this assay record as the result for CC(C)=CCC/C(C)=C/CC/C(C)=C/CO ?
Result: inactive
